Where a name gives a salt, the structure may show the parent alone.
System: UniProt:P50406 | Read-out: Ki
Sequence (P50406 whole entry): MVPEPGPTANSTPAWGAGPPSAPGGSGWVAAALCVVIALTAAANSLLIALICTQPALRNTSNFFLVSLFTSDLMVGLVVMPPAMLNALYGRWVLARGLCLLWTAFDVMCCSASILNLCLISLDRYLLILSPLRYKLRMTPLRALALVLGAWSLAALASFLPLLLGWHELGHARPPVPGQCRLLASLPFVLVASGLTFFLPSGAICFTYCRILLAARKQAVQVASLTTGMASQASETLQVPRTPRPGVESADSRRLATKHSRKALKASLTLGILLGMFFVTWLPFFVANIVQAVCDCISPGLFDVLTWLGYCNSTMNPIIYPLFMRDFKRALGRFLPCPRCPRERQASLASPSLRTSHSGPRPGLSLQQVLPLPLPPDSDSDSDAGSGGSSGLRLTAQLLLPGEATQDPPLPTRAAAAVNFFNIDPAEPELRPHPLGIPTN
Experimental Endpoint: Ki (nM)

Example cases with answers are listed next.
>>> df
                                   compound  experimental_endpoint  quantitative_result
0  O=S(=O)(Nc1ccc2c(c1)C(C1CCNCC1)=CCO2)c1ccccc1 [Example 14, Hemihydrate]                     Ki                    1
1  O=S(=O)(Nc1ccc2c(c1)C(C1CCNCC1)=CCO2)c1cccc2ccccc12 [Example 16]                     Ki                    2

[A] O=S(=O)(Nc1ccc2c(c1)C(C1CCNCC1)CCO2)c1ccccc1 (stereo not shown) [Example 23, Hydrochloride]
[B] O=S(=O)(Nc1ccc2c(c1)C(C1CCNCC1)=CCO2)c1ccc(Cl)cc1 [Example 15]
[in] Returns the identifier with the smallest measured Ki among A and B . # reply format: chosen label
[out] B
(B: 2 nM, A: 12 nM)
